- Test system: H630 human colorectal tumor cells
- Assay notes: Clonogenic assay
- Type: cell-based
- Test conditions: Homo sapiens, NCI-H630; Clonogenic assay, H630 cells, 72 h drug exposure
Recorded metric: IC50 (µM)
The response must be a number in µM with no trailing unit.

## Input Missing value: IC50, H630 human colorectal tumor cells, entry O=c1[nH]cc(F)c(=O)[nH]1 [5-FU, 5-fluorouracil, reference compound] . Fill in?
## Output 3.9
